Field: IC50. Provide a value for each of the molecules that follow.
system-name: human Arginine Vasopressin Receptor 1a (AVPR1a) (Homo sapiens (Human), UniProt P37288)
Sequence (P37288 whole entry): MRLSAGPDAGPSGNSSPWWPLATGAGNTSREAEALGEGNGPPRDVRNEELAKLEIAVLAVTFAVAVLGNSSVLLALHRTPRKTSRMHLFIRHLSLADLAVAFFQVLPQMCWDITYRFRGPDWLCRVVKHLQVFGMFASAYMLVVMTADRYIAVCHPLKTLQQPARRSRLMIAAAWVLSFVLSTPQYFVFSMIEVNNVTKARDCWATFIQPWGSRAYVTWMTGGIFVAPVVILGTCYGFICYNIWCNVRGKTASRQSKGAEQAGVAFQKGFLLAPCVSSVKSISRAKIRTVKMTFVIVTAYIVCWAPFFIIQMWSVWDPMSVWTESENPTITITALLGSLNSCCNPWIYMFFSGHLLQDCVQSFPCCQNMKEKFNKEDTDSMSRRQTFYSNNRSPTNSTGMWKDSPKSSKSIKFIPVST
assay: Vasopressin V1A receptor antagonist assay (AVP-evoked calcium, FLIPR, CHO-AVPR1a cells)
Assay type: cell-based
experimental-context: read-out: V1a IC50
Method: The purpose of this assay was to determine the inhibitory effect of synthesized compounds on the Vasopressin V1a receptor. The assay as performed in Chinese Hamster Ovary (CHO) cells expressing the human Arginine Vasopressin Receptor 1a (AVPR1a). Arginine Vasopressin (AVP) evokes an increase in intracellular calcium in CHO-AVPR1a cells which is measured in a fluorescence assay on the FLIPR^TETRA using calcium sensitive dyes. […]

The following molecules have reported results that may help.
CC(C)OC(=O)N1Cc2cc(Cl)ccc2-n2c(nnc2C2CC3(C2)CN(c2ccc(F)cn2)C3)C1 [compound 111] ... < 100 nM
CN1Cc2cc(Cl)ccc2-n2c(nnc2C2CC3(C2)CN(C(=O)C2(F)CC2)C3)C1 [compound 36] ... < 100 nM
CCOC(=O)N1Cc2cc(Cl)ccc2-n2c(C3CC4(C3)CN(c3ccc(F)cn3)C4)nnc2C1C (single isomer, unassigned) [Cpd 169B] ... 100 to 500 nM
CCOC(=O)N1Cc2cc(Cl)ccc2-n2c(nnc2C2CC3(C2)CN(c2ccccn2)C3)C1 [compound 68] ... < 100 nM
CC1c2nnc(C3CC4(C3)CN(c3ccc(F)cn3)C4)n2-c2ccc(Cl)cc2CN1C(=O)OC(CF)CF (single isomer, unassigned) [Cpd 203B] ... > 1000 nM
COC(=O)N1Cc2cc(Cl)ccc2-n2c(C3CC4(C3)CN(c3ccc(F)cn3)C4)nnc2C1C (centres unmarked) [compound 142] ... < 100 nM

Each molecule below has a reported value. Please supply its IC50.
1. CCC(=O)N1Cc2cc(Cl)ccc2-n2c(nnc2C2CC3(C2)CN(c2ccc(F)cn2)C3)C1 [compound 72]
2. N#Cc1cccc(N2CC3(CC(c4nnc5n4-c4ccc(Cl)cc4CN(C4CC4)C5)C3)C2)n1 [compound 228]
3. CC1c2nnc(C3CC4(C3)CN(c3ncccn3)C4)n2-c2ccc(Cl)cc2CN1C(=O)OC1(C)CC1 (single isomer, unassigned) [Cpd 205B]
4. COC(=O)N1Cc2cc(Cl)ccc2-n2c(nnc2C2CC3(C2)CN(c2ncc(F)cn2)C3)C1 [compound 92]
5. CC(=O)N1Cc2cc(Cl)ccc2-n2c(nnc2C2CC3(C2)CN(c2ccccn2)C3)C1 [compound 73]
6. CC1c2nnc(C3CC4(C3)CN(c3ccc(F)cn3)C4)n2-c2ccc(Cl)cc2CN1C(=O)C1(F)CC1 (single isomer, unassigned) [Cpd 174A]

[A]
1. < 100 nM
2. < 100 nM
3. > 1000 nM
4. < 100 nM
5. < 100 nM
6. < 100 nM

Quick one: give me IC50 for each item below, same order please.
1. O=C(C1CC1)N1CC2(CC(c3nnc4n3-c3ccc(Cl)cc3CN(C(=O)C3(F)CC3)C4)C2)C1 [compound 136]
2. CN1Cc2cc(Cl)ccc2-n2c(nnc2C2CC3(C2)CN(c2noc(C4CC4)n2)C3)C1 [compound 267]

[A]
< 100 nM
> 1000 nM

Cited source for all entries: patent US11186577B2
